# Study target: Mitogen-activated protein kinase kinase kinase 2 (Homo sapiens); also: in the data inactive means no Kd found up to 30 µM
# Sequence (Q9Y2U5 whole entry): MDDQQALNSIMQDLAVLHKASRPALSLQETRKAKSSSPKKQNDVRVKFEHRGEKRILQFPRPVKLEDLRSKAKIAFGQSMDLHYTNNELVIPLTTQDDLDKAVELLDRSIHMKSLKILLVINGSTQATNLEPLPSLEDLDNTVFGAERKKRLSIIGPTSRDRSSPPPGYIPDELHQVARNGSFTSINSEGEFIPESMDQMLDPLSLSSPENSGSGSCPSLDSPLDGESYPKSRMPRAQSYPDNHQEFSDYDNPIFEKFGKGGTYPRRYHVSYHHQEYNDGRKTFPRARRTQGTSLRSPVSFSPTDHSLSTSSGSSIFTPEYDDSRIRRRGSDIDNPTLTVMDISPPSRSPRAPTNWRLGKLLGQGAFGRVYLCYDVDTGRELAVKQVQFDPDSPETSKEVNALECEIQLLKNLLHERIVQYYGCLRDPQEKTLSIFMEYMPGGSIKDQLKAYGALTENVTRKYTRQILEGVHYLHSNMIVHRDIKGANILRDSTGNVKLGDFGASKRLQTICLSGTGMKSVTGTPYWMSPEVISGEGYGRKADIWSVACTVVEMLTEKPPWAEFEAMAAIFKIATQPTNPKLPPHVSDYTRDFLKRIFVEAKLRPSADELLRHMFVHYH
Activity calls are given as the source filed them.
Pick from active, inactive when you respond.

Solved cases (3 shown):
smiles_notation=CN1CCN(CCOc2cc(OC3CCOCC3)c3c(Nc4c(Cl)ccc5c4OCO5)ncnc3c2)CC1 category_label=inactive
smiles_notation=COc1ccc(S(=O)(=O)N(C(C)=O)c2ccccc2/C=C/c2cc[n+]([O-])cc2)cc1 category_label=inactive
smiles_notation=CO[C@H]1C[C@@H]2CC[C@@H](C)[C@@](O)(O2)C(=O)C(=O)N2CCCC[C@H]2C(=O)O[C@H]([C@H](C)C[C@@H]2CC[C@@H](OC(=O)C(C)(CO)CO)[C@H](OC)C2)CC(=O)[C@H](C)/C=C(\C)[C@@H](O)[C@@H](OC)C(=O)[C@H](C)C[C@H](C)/C=C/C=C/C=C/1C category_label=inactive

Q: Identify the outcome logged in this assay for the compound shown: Cn1cc(-c2cnc3ccc4ccc(CS(=O)(=O)NCc5ccccn5)cc4c(=O)c3c2)cn1
Ans: inactive

Q: Tell me the assay call for CO[C@H]1C[C@@H]2CC[C@@H](C)[C@@](O)(O2)C(=O)C(=O)N2CCCC[C@H]2C(=O)O[C@H]([C@H](C)C[C@@H]2CC[C@@H](O)[C@H](OC)C2)CC(=O)[C@H](C)/C=C(\C)[C@@H](O)[C@@H](OC)C(=O)[C@H](C)C[C@H](C)/C=C/C=C/C=C/1C please.
Ans: inactive

Q: Per the records of this test, what outcome belongs to Nc1ncnc2c1c(-c1cccc(OCc3ccccc3)c1)cn2[C@H]1C[C@@H](CN2CCC2)C1 ?
Ans: inactive

Q: Hi, sorry to bother you, what did the test record for C[C@H]1CNCCCN1S(=O)(=O)c1cccc2cncc(F)c12 ?
Ans: inactive

Q: Field: outcome | Entry: CCCCCCCCCCCCCCCCCCOP(=O)([O-])OC1CC[N+](C)(C)CC1
Ans: inactive

----------
# Study target: Cyclin-G-associated kinase (Homo sapiens, UniProt O14976); also: in the data inactive means no Kd found up to 30 µM
# Sequence (O14976 whole entry): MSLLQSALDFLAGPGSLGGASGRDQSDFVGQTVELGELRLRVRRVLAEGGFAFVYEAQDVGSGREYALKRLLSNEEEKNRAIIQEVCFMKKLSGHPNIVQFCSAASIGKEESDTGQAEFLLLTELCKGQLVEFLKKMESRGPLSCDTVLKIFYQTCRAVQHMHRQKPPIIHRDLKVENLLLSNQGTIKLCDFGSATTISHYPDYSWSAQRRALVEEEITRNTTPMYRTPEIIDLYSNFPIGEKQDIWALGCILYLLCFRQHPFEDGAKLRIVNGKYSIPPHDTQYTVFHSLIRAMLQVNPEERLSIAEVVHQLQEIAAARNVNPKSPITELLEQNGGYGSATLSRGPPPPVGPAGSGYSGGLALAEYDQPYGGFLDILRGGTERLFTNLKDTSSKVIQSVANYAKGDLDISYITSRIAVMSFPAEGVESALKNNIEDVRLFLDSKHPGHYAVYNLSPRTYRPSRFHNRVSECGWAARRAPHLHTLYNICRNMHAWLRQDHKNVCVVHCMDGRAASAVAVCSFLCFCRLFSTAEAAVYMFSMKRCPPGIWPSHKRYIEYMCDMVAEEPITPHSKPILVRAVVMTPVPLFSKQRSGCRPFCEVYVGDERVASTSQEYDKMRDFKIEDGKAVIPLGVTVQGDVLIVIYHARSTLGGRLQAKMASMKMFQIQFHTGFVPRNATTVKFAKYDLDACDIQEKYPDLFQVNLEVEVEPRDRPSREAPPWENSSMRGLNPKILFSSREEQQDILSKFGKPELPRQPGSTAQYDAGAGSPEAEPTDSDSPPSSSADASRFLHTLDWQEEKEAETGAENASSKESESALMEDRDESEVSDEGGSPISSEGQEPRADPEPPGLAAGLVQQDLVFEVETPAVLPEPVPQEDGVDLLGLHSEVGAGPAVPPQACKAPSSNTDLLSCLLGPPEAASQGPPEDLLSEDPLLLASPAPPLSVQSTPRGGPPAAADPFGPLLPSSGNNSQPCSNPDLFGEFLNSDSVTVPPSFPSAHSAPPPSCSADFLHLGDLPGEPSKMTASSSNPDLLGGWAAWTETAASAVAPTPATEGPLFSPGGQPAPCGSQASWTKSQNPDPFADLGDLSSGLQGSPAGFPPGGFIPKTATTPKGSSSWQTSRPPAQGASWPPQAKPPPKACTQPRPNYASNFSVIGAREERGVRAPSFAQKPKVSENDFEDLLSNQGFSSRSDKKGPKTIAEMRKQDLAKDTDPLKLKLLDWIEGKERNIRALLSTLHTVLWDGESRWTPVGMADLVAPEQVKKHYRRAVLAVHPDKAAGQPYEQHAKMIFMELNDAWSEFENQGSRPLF
Active and inactive are the calls of the source.
Just give me one of these, please: active, inactive

smiles_notation=O=C(Cc1ccc(-c2ccc(OCCN3CCOCC3)cc2)cn1)NCc1ccccc1 category_label=inactive

Q: Please indicate how the test categorized Cc1nc(Nc2n[nH]c3c2CN(C(=O)N[C@H](CN(C)C)c2ccccc2)C3(C)C)c2sccc2n1 .
Ans: active

Q: Dear all, I need the recorded test outcome for CC(C)(C)c1nc(-c2cccc(NS(=O)(=O)c3c(F)cccc3F)c2F)c(-c2ccnc(N)n2)s1 , thank you.
Ans: inactive

Q: Which outcome was assigned to CCNC(=O)C#Cc1ccc2c(c1)NC(=O)/C2=C(\Nc1ccc(CN(C)C)cc1)c1ccccc1 in this test?
Ans: inactive
